Just for reference, the supplement of paper PMC9170038 is where these values come from.

system: MS2 coat protein; assay: apparent KD of MS2 coat protein; designed switch direction (-1 OFF switch, 1 ON switch): 1; higher = weaker reporter binding; conditions: input ligand: microRNA oligo, concentration not stated
Parameter threshold = 60 nM. Response is TRUE when apparent KD of MS2 coat protein meets or exceeds it, else FALSE.

UUCUCAUUUACAUGAGGAUCACCCAUGUUUUUUUGUCGGAAAUAGGAUAUAGGUCUCUCGUUUUACUAGAAGGAUUUCCUUAUU [JR_SSNG3_Sub089] (Eterna round: R96, puzzle: Same State NG 3): TRUE
GCUCGAUGAUAGGCCUACAUGAGGAUCACCCAUGUGACUGGGCAGGAUAUCUAAAUGCAGAAUGUAGAGAAGGGCCCGUCGAGC [SameState NG3 #52] (Eterna round: R96, puzzle: Same State NG 3): TRUE
GUACAGAUCACAGGAUAUCACGUCGAAUAGACGUGAGAAGGGUGAUCACACAUGAAUAUUAAUACAUGAGGAUCACCCAUGUAC [SSNG1/16-A1] (Eterna round: R96, puzzle: Same State NG 1): FALSE
UGUUGUAUUACAGGAUAUCUAUUGAUUUUAUUUAGAGAAGGGUAUUCACAUGAGGAUCACCCAUGUAUAUACGAGGAAGUUGUG [JMF's solution 71] (Eterna round: R96, puzzle: Same State NG 1): FALSE
ACUUACAUGGUAGGAUAUGUCCGUCUAGCUGACACAGAAGGGCCAAGCUCUACGACAUGAGGAUCACCCAUGUGAAGGAGAGGC [Eternabot solution 49] (Eterna round: R96, puzzle: Same State NG 1): FALSE
UUAAUUAAUUAAUUAUACAUGAGGAUCACCCAUGUAAGUGAUCAGGAUAUCAGCUCGAAUAGAGCUGAGAAGGGAUACAUGAAU [SSNG3/12-A1] (Eterna round: R96, puzzle: Same State NG 3): TRUE
GAGUAGUUGAAAGGAUAUAGAUUGUUGUAGGAUCUAGAAGGUUCUAACAUGAGGAUCACCCAUGUAGGACUAUUCCUGUGUAUC [Parity 87 - Jieux - Same State NG 1] (Eterna round: R96, puzzle: Same State NG 1): FALSE
CCGGUUUAUGGAGGAUAUGGAGCCUUAUUGGCUCCAGAAGGCUAAUAACAUGAGGAUCACCCAUGUCCGGCGGUCAAUAGACCG [Eli NG1ss - 57] (Eterna round: R96, puzzle: Same State NG 1): TRUE
UUGAAGAAUUAAGGAUAUCGAGUCGUCAGAUUUUACAUGAGGAUCACCCAUGUGGGUUGCGGUAUCGAGAAGGUAAAUUACAAG [JL JR Sub099 mod 6] (Eterna round: R96, puzzle: Same State NG 2): FALSE
CUCACAUGGGUAGGAUAUCUAGGAUAUGGGAAAGACUAAGUCUGUAGGUCACCUAACCCAGAUGGAGAGAAGGACCCAACACUC [pwkr ssNG2 2FMN + F9.37] (Eterna round: R96, puzzle: Same State NG 2): FALSE
GGUAUGGACACAGGAUAUGCUAUCCUUUGGGUAGCAGAAGGGUGAACAUGAGGAUCACCCAUGUACGUGCCAGGGCGUGAGCCC [JL SSNG1 1.78] (Eterna round: R96, puzzle: Same State NG 1): TRUE
GUACAGAUUAUAGGAUAUCACGUCGAAUAGACGUGAGAAGGAUAAUCCCACAUGAAUAUUAAUACAUGAGGAUCACCCAUGUAC [SSNG1/18-B1] (Eterna round: R96, puzzle: Same State NG 1): FALSE
GGUGCCAAAUAAGCCUACAUGAGGAUCACCCAUGUAUGUAGGCAGGAUAUCGUUUGCAAAGCAAACGAGAAGGGCUGAGGCACC [Mat - Same State NG 3 - JL Mod - D53] (Eterna round: R96, puzzle: Same State NG 3): FALSE
AAUCGUUUGAUAGGAUAUCGCUAUACAUGAGGAUCACCCAUGUUUACCACGCUGGUUUUUCGUACCGAGAAGGAUUCUGAUGAU [JL JR sub007 mod 4] (Eterna round: R96, puzzle: Same State NG 2): FALSE
GAGCCAGUCCGAGGAUAUUCAUAUUAAAUACAUGAGGAUCACCCAUGUAGGCUCAGAGAGCCUUGGGAGAAGGCGGACUGGCUC [Xeonanisa>>1] (Eterna round: R96, puzzle: Same State NG 2): TRUE
AUAAAACAUGAGGAUCACCCAUGUCAACAAAGUCGAGGAUAUGGGCAAAUAAAAUAAGAACCAGAAGGCGAAUAUU [salish99_ss1_r3_037] (Eterna round: R96, puzzle: Same State 1): TRUE
AACAAUCUAUCUGAGGAUAUCAUGUCAAAGACAUGAGGAUCACCCAUGUUGCAGGAAACUGCUCAUGAGAAGGCAGAUAGAUUGA [SS2: 1129] (Eterna round: R96, puzzle: Same State 2): TRUE
UGAAUAGUUACAGGAUAUCAUGCGAAAAUUGCGUGAGAAGGGUGGGUGUUGUGCGCUAAGUGCCACAUGAGGAUCACCCAUGUU [SameState NG1 #38] (Eterna round: R96, puzzle: Same State NG 1): FALSE
